# STUDY SYSTEM: LZK (Homo sapiens)
# Construct: 10 nM LZK, catalytic domain, Carna Biosiences in assay buffer; purchased Carna Biosciences ('Carna Biosiences' [sic])
# Sequence (O43283 168-409 limits assumed): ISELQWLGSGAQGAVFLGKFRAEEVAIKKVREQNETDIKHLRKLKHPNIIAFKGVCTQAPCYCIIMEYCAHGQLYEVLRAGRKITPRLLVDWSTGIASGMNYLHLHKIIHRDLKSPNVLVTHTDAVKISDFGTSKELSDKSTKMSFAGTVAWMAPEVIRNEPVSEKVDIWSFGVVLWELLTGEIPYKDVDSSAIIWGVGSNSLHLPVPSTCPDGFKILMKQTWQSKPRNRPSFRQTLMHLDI
# TEST PROTOCOL: LZK biochemical assay (TR-FRET, MKK7 phosphorylation)
MEASURED PARAMETER: pIC50
Bear in mind: pIC50 is minus log10 of a mol/L concentration; give just that figure.

Recorded results for 5 compounds are shown here.
{"COMPOUND": "CC(C)[C@@H](c1ccc(C(F)(F)F)nc1)n1cc(-c2cc(-c3cnn(C4CCCC4)c3)n3nc(N)nc3c2)cn1 [II-145]", "pIC50": 8.00}
{"COMPOUND": "Nc1nc2cc(-c3cnn(C(c4ccccc4)C4CCOCC4)c3)cc(-c3cnn(CC(F)(F)F)c3)n2n1 (stereo not shown) [II-146]", "pIC50": 6.70}
{"COMPOUND": "CC(C)C(c1ccc(C(F)F)nc1)n1cc(-c2cc(-c3ccc(C(F)(F)F)nc3)n3nc(N)nc3c2)cn1 (racemic) [II-64]", "pIC50": 7.23}
{"COMPOUND": "CC[C@@H](c1ccccc1)n1cc(-c2cc(-c3cnn(CCO)c3)c3nc(N)nn3c2)cn1 [II-97]", "pIC50": 6.42}
{"COMPOUND": "CCC(c1ccc(OC(F)(F)F)nc1)n1cc(-c2cc(-c3cnn(CC(F)(F)F)c3)n3nc(N)nc3c2)cn1 (single isomer, unassigned) [II-115]", "pIC50": 6.86}

Lookup: So what does the record say about pIC50 for Nc1nc2c(-c3ccc(=O)n(CC(F)F)c3)cc(-c3cnn(C(c4ccc(C(F)(F)F)nc4)C4CCOCC4)c3)cn2n1 (single isomer, unassigned) [II-157] ?
Found: 7.92

Lookup: Which pIC50 is listed for CC(C)C(c1ccc(C(F)F)nc1)n1cc(-c2cc(-c3ccc(C4CC4)nc3)n3nc(N)nc3c2)cn1 (single isomer, unassigned) [II-54] ?
Found: 8.05

Lookup: What value of measured pIC50 is listed for CC(n1cc(-c2cc(-c3cnn(Cc4ccccc4)c3)cc3nc(N)nn23)cn1)C(F)(F)F (stereo not shown) [II-122] ?
Found: 7.43

Lookup: Data request, read-out pIC50, for Nc1nc2cc(-c3cnn(C(c4ccc(C(F)(F)F)nc4)C4CCOCC4)c3)cc(-c3cn(CC(F)(F)F)c(=O)cn3)n2n1 (single isomer, unassigned) [II-195]
Found: 8.28

Lookup: # lookup: pIC50 of CC(C)C(c1ccc(C(F)(F)F)nc1)n1cc(-c2cc(-c3ccc(N4CCCC4)nc3)n3nc(N)nc3c2)cn1 (racemic) [II-79]
Found: 7.57

Lookup: # input compound: Nc1nc2c(-c3cccc(S(=O)(=O)C(F)(F)F)c3)cc(-c3cnn(C(c4ccc(C(F)(F)F)nc4)C4CCOCC4)c3)cn2n1 (racemic) [II-19] ; wanted: its pIC50
Found: 7.35

Lookup: Look up pIC50: Nc1nc2cc(-c3cnn(C(c4ccccc4)C4CCOCC4)c3)cc(-c3cnn(CC(F)(F)F)c3)n2n1 (single isomer, unassigned) [II-147]
Found: 7.14

Lookup: Which pIC50 value belongs to COc1cc(C(C(C)C)n2cc(-c3cc(-c4cnn(CC(F)(F)F)c4)n4nc(N)nc4c3)cn2)ccn1 (stereo not shown) [II-136] ?
Found: 7.32

Lookup: Any idea what its pIC50 is? The compound is CCC(c1ccc(C(F)(F)F)nc1)n1cc(-c2cc(-c3ccc(=O)n(CC(F)(F)F)c3)n3nc(N)nc3c2)cn1 (single isomer, unassigned) [II-189]
Found: 7.49

Lookup: Fill in the blank: the reported pIC50 of Nc1nc2c(-c3ccn(CC(F)F)c(=O)c3)cc(-c3cnn(C(c4ccc(C(F)(F)F)nc4)C4CCOCC4)c3)cn2n1 (single isomer, unassigned) [II-173] is ____.
Found: 7.60

Lookup: Entry under review: CC(C)C(c1ccc(C(F)(F)F)nc1)n1cc(-c2cc(-c3cnn(CC(F)(F)F)c3)n3nc(N)nc3c2)cn1 (stereo not shown) [II-139] . Reported pIC50?
Found: 7.57

Lookup: For CC(C)C(c1ccc(C(F)(F)F)nc1)n1cc(-c2cc(-c3ccc(C4CC4)nc3)c3nc(N)nn3c2)cn1 (single isomer, unassigned) [II-45] , what is its reported pIC50?
Found: 8.00

Lookup: Fill in the blank: the reported pIC50 of CCC(c1ccc(C(F)(F)F)nc1)n1cc(-c2cc(-c3cnn(CC(F)F)c3)c3nc(N)nn3c2)cn1 (single isomer, unassigned) [II-109] is ____.
Found: 7.24
